Below, each entry is listed alongside its reported melting point.
endpointLabel: melting point

[[record]]
molecule = "CC(c1ccc(C(F)(F)F)nc1)S(C)(=O)=Nc1nc(-c2ccc(Br)s2)cs1 (centres unmarked)"
endpointlabel = "melting point"
recordedvalue = "160 to 165 °C"

[[record]]
molecule = "CCOc1ccc(-c2csc(N=S(C)(=O)C(C)c3ccc(C(F)(F)F)nc3)n2)cc1 (centres unmarked)"
endpointlabel = "melting point"
recordedvalue = "105 to 110 °C"

[[record]]
molecule = "CS(=O)(Cc1ccc(C(F)(F)F)nc1)=Nc1nc(C(F)(F)F)cs1 (centres unmarked)"
endpointlabel = "melting point"
recordedvalue = "126 to 128 °C"

[[record]]
molecule = "COc1ccc(-c2csc(N=S3(=O)CCCC3c3ccc(Cl)nc3)n2)cc1 (centres unmarked)"
endpointlabel = "melting point"
recordedvalue = "88 to 94 °C"

[[record]]
molecule = "CC(c1ccc(C(F)(F)F)nc1)S(C)(=O)=Nc1nc(-c2cccnc2)cs1 (centres unmarked)"
endpointlabel = "melting point"
recordedvalue = "178 to 182 °C"

[[record]]
molecule = "CC(c1ccc(C(F)(F)F)nc1)S(C)(=O)=Nc1nc(C2CC2)cs1 (centres unmarked)"
endpointlabel = "melting point"
recordedvalue = "102 to 106 °C"

[[record]]
molecule = "CC(c1ccc(C(F)(F)F)nc1)S(C)(=O)=Nc1nc(-c2ccc(Br)cc2)co1 (centres unmarked)"
endpointlabel = "melting point"
recordedvalue = "134 to 137 °C"

[[record]]
molecule = "CC(c1ccc(C(F)(F)F)nc1)S(C)(=O)=Nc1nc(-c2ccccc2)cs1 (centres unmarked)"
endpointlabel = "melting point"
recordedvalue = "88 to 93 °C"

[[record]]
molecule = "CC(c1ccc(C(F)(F)F)nc1)S(C)(=O)=Nc1nc(-c2ccccn2)cs1 (centres unmarked)"
endpointlabel = "melting point"
recordedvalue = "134 to 141 °C"

[[record]]
molecule = "CCc1csc(N=S(C)(=O)Cc2ccc(C(F)(F)F)nc2)n1 (centres unmarked)"
endpointlabel = "melting point"
recordedvalue = "114 to 116 °C"

[[record]]
molecule = "CC(c1ccc(C(F)(F)F)nc1)S(C)(=O)=Nc1nc(-c2ccc(OC(F)(F)F)cc2)cs1 (centres unmarked)"
endpointlabel = "melting point"
recordedvalue = "90 to 95 °C"

[[record]]
molecule = "COc1cccc(-c2csc(N=S(C)(=O)C(C)c3ccc(C(F)(F)F)nc3)n2)c1 (centres unmarked)"
endpointlabel = "melting point"
recordedvalue = "107 to 110 °C"

[[record]]
molecule = "CC(C)(C)c1csc(N=S2(=O)CCCC2c2ccc(Cl)nc2)n1 (centres unmarked)"
endpointlabel = "melting point"
recordedvalue = "77 to 81 °C"

[[record]]
molecule = "CC(c1ccc(C(F)(F)F)nc1)S(C)(=O)=Nc1nc(-c2ccc(C(F)(F)F)cc2)cs1 (centres unmarked)"
endpointlabel = "melting point"
recordedvalue = "124 to 127 °C"

[[record]]
molecule = "CS(=O)(Cc1ccc(Cl)nc1)=Nc1nc(C(F)(F)F)cs1 (centres unmarked)"
endpointlabel = "melting point"
recordedvalue = "122 to 125 °C"

[[record]]
molecule = "COc1ccc(-c2csc(N=S(C)(=O)Cc3ccc(C(F)(F)F)nc3)n2)cc1 (centres unmarked)"
endpointlabel = "melting point"
recordedvalue = "158 to 161 °C"

[[record]]
molecule = "COc1ccc(-c2csc(N=S(C)(=O)C(C)c3ccc(C(F)(F)F)nc3)n2)cc1OC (centres unmarked)"
endpointlabel = "melting point"
recordedvalue = "153 to 160 °C"

